Values were extracted from ChEMBL document CHEMBL1159126.

Here, each record is paired with measured MIC data.
Tested on: Mycobacterium avium
TEST_DETAILS: Antimycobacterial activity against Mycobacterium avium 330/88 after 14 days by micromethod
Assay type: functional
CONDITIONS_USED: 330/88, 336 h
State just the number; it will be interpreted in µM.

CCNC(=O)Oc1ccc(Cl)cc1C(=O)Nc1ccc(Cl)c(Cl)c1: 16
CCCCCCNC(=O)Oc1ccc(Cl)cc1C(=O)Nc1ccc(Cl)c(Cl)c1: 4
CCCCCNC(=O)Oc1ccc(Cl)cc1C(=O)Nc1ccc(Cl)cc1: 8
CCCCCCCCCCCNC(=O)Oc1ccc(Cl)cc1C(=O)Nc1ccc(Cl)cc1: 8

Ask: Lab note: Mycobacterium avium assay, enter MIC for `CCCCCCCCCCNC(=O)Oc1ccc(Cl)cc1C(=O)Nc1ccc(Cl)cc1` here
Reply: 8

Ask: Lab note: Mycobacterium avium assay, enter MIC for `CCCCCCCNC(=O)Oc1ccc(Cl)cc1C(=O)Nc1cccc(Cl)c1` here
Reply: 8

Ask: Lab note: Mycobacterium avium assay, enter MIC for `CCCCCCCCCNC(=O)Oc1ccc(Cl)cc1C(=O)Nc1ccc(Cl)cc1` here
Reply: 8

Ask: Lab note: Mycobacterium avium assay, enter MIC for `CCCCCCNC(=O)Oc1ccc(Cl)cc1C(=O)Nc1ccc(Cl)cc1` here
Reply: 4

Ask: Lab note: Mycobacterium avium assay, enter MIC for `CCCCCCCNC(=O)Oc1ccc(Cl)cc1C(=O)Nc1ccc(Cl)cc1` here
Reply: 8

Ask: Lab note: Mycobacterium avium assay, enter MIC for `CCCCCCCCCCCNC(=O)Oc1ccc(Cl)cc1C(=O)Nc1ccc(Cl)c(Cl)c1` here
Reply: 16

Ask: Lab note: Mycobacterium avium assay, enter MIC for `CCCCNC(=O)Oc1ccc(Cl)cc1C(=O)Nc1ccc(Cl)cc1` here
Reply: 4
